Readings of Percent increase in proton secretion T/C [%] for the listed compounds
- System: HGT-1 cells
- Assay: Reduction of bitter substance induced proton secretion in HGT-1 cells by bitter-masking compounds
- Type: cell-based, human
- Test Parameters: 0.3 mM theobromine + 0.3 mM test compound, 10 min
Please reply with the bare figure in % and do not write the unit itself.

Previously resolved entries follow.
COc1cc(C[C@H]2CO[C@H](c3ccc(O)c(OC)c3)[C@H]2CO)ccc1O: 17.55
O=C1C[C@@H](c2ccc(O)c(O)c2)Oc2cc(O)cc(O)c21: −42.86
COc1cc([C@@H]2CC(=O)c3c(O)cc(O)cc3O2)ccc1O: −16.92

Data request: Recorded Percent increase in proton secretion T/C [%] of `COc1cc(C[C@H]2COC(=O)[C@@H]2Cc2ccc(O)c(OC)c2)ccc1O` , please.
Data returned: −18.25

----------
Readings of Percent increase in proton secretion T/C [%] for the listed compounds
- Tested on: HGT-1 cells
- Assay: Reduction of bitter substance induced proton secretion in HGT-1 cells by bitter-masking compounds
- Format: cell-based, human
- Test Parameters: 3 mM caffeine + 0.03 mM test compound, 10 min
Units required after the number.

Previously resolved entries follow.
COc1cc(C[C@H]2COC(=O)[C@@H]2Cc2ccc(O)c(OC)c2)ccc1O: 14.39%
O=C1C[C@@H](c2ccc(O)c(O)c2)Oc2cc(O)cc(O)c21: 29.69%
COc1cc(C[C@H]2CO[C@H](c3ccc(O)c(OC)c3)[C@H]2CO)ccc1O: 46.40%

// moving on: another record for Percent increase in proton secretion T/C [%]
Data request: Recorded Percent increase in proton secretion T/C [%] of `COc1cc([C@@H]2CC(=O)c3c(O)cc(O)cc3O2)ccc1O` , please.
Data returned: 37.99%

// provenance: patent US20150362481A1
